Cited source: the supplement of paper PMC12764529

test: folding stability dG unfold from chymotrypsin proteolysis; higher = more stable
Rule: True for folding stability dG unfold not less than 2 kcal/mol, False for anything less.

biopolymer_sequence="SMVITLPVEDEEKLKELLDELKEQLEKAEEEGLETVTITITLEDGETLEITIDKNMTVEELLEQLEKALESA [r9_127_TrROS_Hall]" assigned_label=False
biopolymer_sequence="SAGGSAGGSAGSSMTTVTVTITDTGSGKTTTTELDVPVSEVQAVIDELSPSPTLTITVVQSAGGSAGGSAGG [r17_50_JUSTAS]" assigned_label=False
biopolymer_sequence="SAGGSAGGSASLVVVTTKPPNGPETVELTTDYPPDVRRVTTDPKTGATSEVVVLPADAVLPSAGGSAGGSAG [r3_356_JUSTAS]" assigned_label=False

In the following, a different sequence is considered.
Could you tell me if the measured folding stability dG unfold of SLKPGEWVMFMFTIPITIRITKDDLPPGWKIKEVTIRIYVMFLFRVDPDGNFKILSFNIMIEIEVKYEPDSA [r9_747_TrROS] reaches 2 kcal/mol or more?
True
